experimentalSystem: 5-hydroxytryptamine receptor 2A (Rattus norvegicus) (UniProt P14842)
Sequence (P14842 whole entry): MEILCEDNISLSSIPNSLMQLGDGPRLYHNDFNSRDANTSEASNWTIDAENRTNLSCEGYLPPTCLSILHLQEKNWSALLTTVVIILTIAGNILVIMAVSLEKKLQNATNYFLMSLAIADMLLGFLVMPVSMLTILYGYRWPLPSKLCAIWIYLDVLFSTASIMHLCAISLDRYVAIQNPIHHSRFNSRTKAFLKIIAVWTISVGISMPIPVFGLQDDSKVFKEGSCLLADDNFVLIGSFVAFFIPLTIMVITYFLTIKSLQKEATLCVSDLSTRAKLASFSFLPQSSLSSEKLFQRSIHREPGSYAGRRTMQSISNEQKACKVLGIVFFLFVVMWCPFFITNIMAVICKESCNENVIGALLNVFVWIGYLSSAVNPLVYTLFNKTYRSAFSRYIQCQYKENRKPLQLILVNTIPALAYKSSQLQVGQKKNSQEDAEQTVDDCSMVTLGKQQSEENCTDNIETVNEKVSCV
procedureSummary: In vivo occupancy at rat 5-HT2A receptor at 30 min after dosing at 10 mg/kg per orally
Type: functional, organism-based
Examples of compounds with documented Activity follow.

Here are 4 compounds together with their reported answers.
q: Please give the measured Activity for this compound: "O=S(=O)(c1ccc(N2CCC2)cc1)C1(F)CCN(CCc2ccc(F)cc2F)CC1"
a: 49

q: Please give the measured Activity for this compound: "O=S(=O)(c1ccc(-n2cccn2)cc1)C1(F)CCN(CCc2ccc(F)cc2F)CC1"
a: 37

q: Please give the measured Activity for this compound: "N#Cc1ccc(S(=O)(=O)C2(F)CCN(CCc3ccc(F)cc3F)CC2)cc1"
a: 80

q: Please give the measured Activity for this compound: "O=S(=O)(c1ccc(F)cc1)C1(F)CCN(CCc2ccc(F)cc2F)CC1"
a: 98%

Now consider a different compound.
q: Please give the measured Activity for this compound: "O=S(=O)(c1ccc(-n2ccnn2)cc1)C1(F)CCN(CCc2ccc(F)cc2F)CC1"
a: 62

----------
procedureSummary: Plasma clearance after i.v. administration in rat
Assay type: ADME, organism-based
conditionSummary: iv, read-out: Clp
quantity: clearance (mL/min)
Quick note: give the figure in mL/min, leave out the unit.

q: Please give the measured clearance for this compound: "O=S(=O)(c1ccc(F)cc1)C1(F)CCN(CCc2ccc(F)cc2F)CC1"
a: 69

----------
Observed pKi, system 5-hydroxytryptamine receptor 2C (Homo sapiens).
As a rule, pKi stands for the negative log10 of the concentration, concentration in M.

q: Please give the measured pKi for this compound: "O=S(=O)(c1ccccc1F)C1(F)CCN(CCc2ccc(F)cc2F)CC1"
a: 7.85

q: Please give the measured pKi for this compound: "N#Cc1ccc(S(=O)(=O)C2(F)CCN(CCc3ccc(F)cc3F)CC2)cc1"
a: 5.83

q: Please give the measured pKi for this compound: "O=S(=O)(c1ccccc1)C1(F)CCN(CCc2ccc(F)cc2F)CC1"
a: 7.31

Now consider a different compound.
q: Please give the measured pKi for this compound: "O=S(=O)(c1ccc(F)cc1)C1(F)CCN(CCc2ccc(F)cc2F)CC1"
a: 6.75

----------
Observed Ki, system 5-hydroxytryptamine receptor 2A (Homo sapiens, UniProt P28223).
Quick note: give the figure in pM, leave out the unit.

Here are 2 molecules together with their reported answers.
q: Please give the measured Ki for this molecule: "O=S(=O)(c1ccc(F)cc1)C1(F)CCN(CCc2ccc(F)cc2F)CC1"
a: 390

q: Please give the measured Ki for this molecule: "O=S(=O)(c1ccc(-n2cccn2)cc1)C1(F)CCN(CCc2ccc(F)cc2F)CC1"
a: 2000

Now consider a different molecule.
q: Please give the measured Ki for this molecule: "O=S(=O)(c1cccc(F)c1)C1(F)CCN(CCc2ccc(F)cc2F)CC1"
a: 300

----------
procedureSummary: Half life period was determined
Type: ADME
conditionSummary: rat
quantity: half-life
Please answer in the form of a number followed by its unit of measurement.

q: Please give the measured half-life for this compound: "O=S(=O)(c1ccc(F)cc1)C1(F)CCN(CCc2ccc(F)cc2F)CC1"
a: 3.8 h

----------
experimentalSystem: D(2) dopamine receptor (Homo sapiens, UniProt P14416)
Sequence (P14416 whole entry): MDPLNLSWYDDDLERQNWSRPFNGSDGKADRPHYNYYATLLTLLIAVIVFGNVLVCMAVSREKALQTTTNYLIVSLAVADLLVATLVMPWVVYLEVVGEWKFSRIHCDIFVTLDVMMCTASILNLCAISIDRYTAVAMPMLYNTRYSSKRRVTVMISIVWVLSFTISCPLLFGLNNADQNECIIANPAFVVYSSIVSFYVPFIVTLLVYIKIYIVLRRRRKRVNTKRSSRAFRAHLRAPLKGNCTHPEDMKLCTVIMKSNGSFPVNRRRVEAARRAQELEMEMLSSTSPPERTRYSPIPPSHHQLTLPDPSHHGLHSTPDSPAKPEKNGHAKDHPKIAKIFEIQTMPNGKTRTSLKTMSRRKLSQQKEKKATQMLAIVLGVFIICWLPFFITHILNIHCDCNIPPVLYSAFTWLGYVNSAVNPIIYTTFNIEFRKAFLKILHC
procedureSummary: Binding affinity against human Dopamine receptor D2
Examples of molecules with documented pKi follow.
As a rule, pKi stands for the negative log10 of the concentration, concentration in M.

Here are 2 molecules together with their reported answers.
q: Enter reported pKi observed with D(2) dopamine receptor (Homo sapiens, UniProt P14416) for "O=S(=O)(c1ccc(F)cc1)C1(F)CCN(CCc2ccc(F)cc2F)CC1"
a: 6.50

q: Enter reported pKi observed with D(2) dopamine receptor (Homo sapiens, UniProt P14416) for "O=S(=O)(c1cccc(F)c1)C1(F)CCN(CCc2ccc(F)cc2F)CC1"
a: 6.10

More entries:
q: Enter reported pKi observed with D(2) dopamine receptor (Homo sapiens, UniProt P14416) for "O=S(=O)(c1ccccc1F)C1(F)CCN(CCc2ccc(F)cc2F)CC1"
a: 6.58

q: Enter reported pKi observed with D(2) dopamine receptor (Homo sapiens, UniProt P14416) for "N#Cc1ccc(S(=O)(=O)C2(F)CCN(CCc3ccc(F)cc3F)CC2)cc1"
a: 6.06
